Molecular target: BvGUS
Assay: isothermal titration calorimetry
Details: 25 °C; 20 mM HEPES, 50 mM NaCl, pH 7.4
quantity.name: Kd (µM)
Report the value in µM with no unit label.

*Q* // Kd lookup, key: Cc1cc2nc3c(=O)[nH]c(=O)nc-3n(C[C@H](O)[C@H](O)[C@H](O)COP(=O)(O)O)c2cc1C
*A* 1.27

---

Molecular target: Fp2GUS (Faecalibacterium prausnitzii)
Sequence (D4K3H3 1-746): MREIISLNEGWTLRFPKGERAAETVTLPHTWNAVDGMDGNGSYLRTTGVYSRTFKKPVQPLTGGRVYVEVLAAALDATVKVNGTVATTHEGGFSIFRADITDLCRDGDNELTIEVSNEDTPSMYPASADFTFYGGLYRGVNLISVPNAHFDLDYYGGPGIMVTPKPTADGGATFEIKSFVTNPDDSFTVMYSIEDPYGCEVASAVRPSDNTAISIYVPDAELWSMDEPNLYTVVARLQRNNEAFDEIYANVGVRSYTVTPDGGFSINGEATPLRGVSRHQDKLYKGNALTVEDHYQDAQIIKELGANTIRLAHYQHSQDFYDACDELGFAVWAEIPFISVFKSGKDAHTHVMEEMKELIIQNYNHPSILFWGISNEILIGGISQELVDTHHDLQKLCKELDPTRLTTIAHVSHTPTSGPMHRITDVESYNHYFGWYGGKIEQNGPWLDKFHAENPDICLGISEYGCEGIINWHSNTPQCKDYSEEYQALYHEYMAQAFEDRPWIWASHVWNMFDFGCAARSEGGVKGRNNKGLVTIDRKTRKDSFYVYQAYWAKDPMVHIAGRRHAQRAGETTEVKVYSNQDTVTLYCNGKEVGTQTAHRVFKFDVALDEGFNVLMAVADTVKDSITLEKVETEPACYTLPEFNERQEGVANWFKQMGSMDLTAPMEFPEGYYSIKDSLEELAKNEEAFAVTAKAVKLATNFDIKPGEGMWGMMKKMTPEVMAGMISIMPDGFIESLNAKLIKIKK
quantity.name: pKd
In simple prose, pKd is minus the logarithm base ten of a concentration in moles per litre.

*Q* // pKd lookup, key: Cc1cc2nc3c(=O)[nH]c(=O)nc-3n(C[C@H](O)[C@H](O)[C@H](O)COP(=O)(O)O)c2cc1C [FMN]
*A* 5.98
